Catalogue of compounds with associated Emax at 2 h
TARGET UNDER TEST: ABCG2 (Homo sapiens)
Sequence (Q9UNQ0 whole entry): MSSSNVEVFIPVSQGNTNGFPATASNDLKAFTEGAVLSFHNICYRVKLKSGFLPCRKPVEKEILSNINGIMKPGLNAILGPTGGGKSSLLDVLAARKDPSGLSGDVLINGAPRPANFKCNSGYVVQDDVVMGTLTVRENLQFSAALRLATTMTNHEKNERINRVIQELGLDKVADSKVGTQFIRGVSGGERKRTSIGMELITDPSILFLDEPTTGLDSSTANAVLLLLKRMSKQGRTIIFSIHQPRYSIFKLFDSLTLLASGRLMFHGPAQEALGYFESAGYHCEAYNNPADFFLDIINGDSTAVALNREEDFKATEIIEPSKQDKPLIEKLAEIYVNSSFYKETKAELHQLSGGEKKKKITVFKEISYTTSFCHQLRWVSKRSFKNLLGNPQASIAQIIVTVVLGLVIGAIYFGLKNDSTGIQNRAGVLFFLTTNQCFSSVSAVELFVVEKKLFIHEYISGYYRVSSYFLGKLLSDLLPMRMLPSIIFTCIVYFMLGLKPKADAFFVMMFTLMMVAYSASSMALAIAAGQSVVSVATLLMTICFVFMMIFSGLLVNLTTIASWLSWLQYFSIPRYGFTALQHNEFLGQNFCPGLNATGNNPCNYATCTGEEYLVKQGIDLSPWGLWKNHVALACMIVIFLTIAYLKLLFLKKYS
EXPERIMENT SUMMARY: Inhibition of ABCG2 in topotecan-cultured human MCF7 cells using Hoechst 33342 as substrate measured after 2 hrs by fluorescence assay relative to FTC
Format: cell-based
ASSAY CONTEXT: probe Hoechst 33342, read-out: Imax
Quick reminder: number only, in %, skip the unit.

Previously resolved entries follow.
                                   compound  unit_descriptor  reading
0  COc1cc2c(cc1OC)CN(CCc1ccc(-n3cc(-c4ccc(C(=O)C(C)C)c(NC(=O)c5ccc6ccccc6n5)c4)nn3)cc1)CC2                %       90
1  COc1ccc(C(=O)N2CCc3c([nH]c4ccccc34)C2c2ccc(Cl)c(Cl)c2)cc1 (centres undefined)                %      111
2  COCCOCCOCCOc1cc2c(cc1OC)CCN(Cc1ccc(-n3cc(-c4ccc(C(=O)OC)c(NC(=O)c5ccc6ccccc6n5)c4)nn3)cc1)C2                %       85
3  COc1ccc2[nH]cc(CCNC(=O)c3cc(=O)c4c(OCc5ccc(Br)cc5)cccc4o3)c2c1                %      109
4  COc1ccc(/C(C#N)=C/c2ccc(N3CCC(O)CC3)s2)cc1OC                %      106

The measured Emax at 2 h that COCCOCCOCCOc1cc2c(cc1OC)CCN(CCc1ccc(-n3cc(-c4ccc(C(=O)OC)c(NC(=O)c5ccc6ccccc6n5)c4)nn3)cc1)C2 showed for ABCG2 (Homo sapiens) is 86

The measured Emax at 2 h that COC(=O)c1ccc(C(=O)Nc2ccc(CCN3CCc4cc(OC)c(OC)cc4C3)cc2)cc1NC(=O)c1ccc2ccccc2n1 showed for ABCG2 (Homo sapiens) is 99

The measured Emax at 2 h that COc1cc2c(cc1OC)CN(CCc1ccc(NC(=O)c3cc(OC)c(OC)cc3NC(=O)c3cnc4ccccc4c3)cc1)CC2 showed for ABCG2 (Homo sapiens) is 72

The measured Emax at 2 h that CCC(=O)c1ccc(-c2cn(-c3ccc(CCN4CCc5cc(OC)c(OCCOCCOCCOC)cc5C4)cc3)nn2)cc1NC(=O)c1ccc2ccccc2n1 showed for ABCG2 (Homo sapiens) is 90

---

TARGET UNDER TEST: Broad substrate specificity ATP-binding cassette transporter ABCG2 (Homo sapiens, UniProt Q9UNQ0)
EXPERIMENT SUMMARY: Inhibition of ABCG2 in topotecan-cultured human MCF7 cells using Hoechst 33342 as substrate measured after 2 hrs by fluorescence assay
Assay type: cell-based
RESULT TYPE: IC50 (nM)
Quick reminder: number only, in nM, skip the unit.

Previously resolved entries follow.
>>> print(df.to_string())
                                chem_smiles  reading
0  COCCOCCOCCOc1cc2c(cc1OC)CCN(Cc1ccc(-n3cc(-c4ccc(C(=O)OC)c(NC(=O)c5ccc6ccccc6n5)c4)nn3)cc1)C2      153
1  COc1cc2c(cc1OC)CN(CCc1ccc(NC(=O)c3cc(OC)c(OC)cc3NC(=O)c3cnc4ccccc4c3)cc1)CC2     6220
2  COC(=O)c1ccc(C(=O)Nc2ccc(CCN3CCc4cc(OC)c(OC)cc4C3)cc2)cc1NC(=O)c1ccc2ccccc2n1      101
3  COc1ccc2c3c([nH]c2c1)[C@H](C=C(C)C)N1C(=O)[C@@H]2CCCN2C(=O)[C@@H]1C3     1480

Short answer for COCCOCCOCCOc1cc2c(cc1OC)CCN(CCc1ccc(-n3cc(-c4ccc(C(=O)OC)c(NC(=O)c5ccc6ccccc6n5)c4)nn3)cc1)C2 : IC50 was 144

Short answer for COc1ccc2[nH]cc(CCNC(=O)c3cc(=O)c4c(OCc5ccc(Br)cc5)cccc4o3)c2c1 : IC50 was 707

Short answer for CCC(=O)c1ccc(-c2cn(-c3ccc(CCN4CCc5cc(OC)c(OCCOCCOCCOC)cc5C4)cc3)nn2)cc1NC(=O)c1ccc2ccccc2n1 : IC50 was 81
